Tested on: STR22 (XBP1-derived stapled bZIP dimer) (synthetic (human XBP1))
Sequence 1: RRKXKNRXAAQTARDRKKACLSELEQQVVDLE
Sequence 2: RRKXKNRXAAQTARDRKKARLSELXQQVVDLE
Test: EMSA
Conditions: 20 mM HEPES pH 8.0, 150 mM NaCl, 2 mM MgCl2, RT 1 h; 14.17 nM reported in Example 4 (FIG. 2)
Value type: Kd
Remember to put the unit after the number in your answer.

Exam item: Let me know recorded Kd for TGACGTGG (double strand) [UPRE consensus probe] , thanks.
Marked response: 11 nM

* * *

test system: XBP1s; test: 3xUPRE-regulated luciferase reporter, FLAG-XBP1s expressing cells; format: cell-based, human; conditions: HeLa, FLAG-XBP1s, 24 hours; read-out: IC50, XBP1s-induced UPRE reporter signal
Value type: IC50 (µM)
Number only, in µM; omit the unit.

Exam item: Fill in IC50 for XBP1-derived stapled dimer: RRK^KNR^AAQTARDRKKA#LSELEQQVVDLE linked to RRK^KNR^AAQTARDRKKARLSEL#QQVVDLE; FIG. 27 [STR22] tested with XBP1s.
Marked response: 7.4

* * *

biological target: UPRE consensus sequence; test: Competitive EMSA with unlabeled UPRE consensus oligo; type: binding; details: read-out: Ki for the consensus sequence (EMSA)
Value type: pKi
Please note pKi is a logarithmic value: minus log10 of concentration in mol/L. Answer with that number alone.

Exam item: Let me know recorded pKi for XBP1-derived stapled dimer: RRK^KNR^AAQTARDRKKA#LSELEQQVVDLE linked to RRK^KNR^AAQTARDRKKARLSEL#QQVVDLE; FIG. 27 [STR22] , thanks.
Marked response: 7.54
